Source: the Immune Epitope Database (IEDB)

- Tested On: HLA-A*30:01
- Test Method Notes: IEDB peptide-MHC binding, purified MHC/competitive/radioactivity; bounds were set here for any values at or beyond the usual limits of such assays
- Measurement Conditions: source organism: Mus musculus
Parameter Measured: pIC50
Keep it numeric: pIC50 is minus log10 of the concentration in mol/L.

Guide cases for pIC50, answers given:
>  <Chain Sequence>
AINSEMFLR

>  <pIC50>
4.30

$$$$
>  <Chain Sequence>
TLALEVARQK

>  <pIC50>
4.63

$$$$

pIC50 of LALEVARQKR on HLA-A*30:01? 4.37

====

- Tested On: HLA-A*30:01
- Test Method Notes: IEDB peptide-MHC binding, purified MHC/competitive/radioactivity; filed as Kd, often an IC50 or EC50 that approximates it; bounds were set here for any values at or beyond the usual limits of such assays
- Measurement Conditions: source organism: Homo sapiens
pKd: −log10 of the molar value.
Parameter Measured: pKd

So what's the measured pKd for this one? LALEGSLQKR ≤ 4.30

So what's the measured pKd for this one? PLALEGSLQ ≤ 4.30
